# Tested on: Bacillus subtilis
# Run description: cleaved RNA product abundance (RNA/gDNA barcode ratio) relative to median wild-type variant (ratio to wild type); higher = more accumulation of the downstream cleavage product
# Settings: experiment (reporter, strain, medium): exp 8a: truncated aprE reporter, strain BJT201 with 2% xylose (RNase J1 expressed); cleavage site: glnRA (positions -5 to +31 mutated)
Measured cleaved RNA product abundance, listed per entry.
Reply with the value as a number alone.

Exercise: Return reported cleaved RNA product abundance. Input sequence: CGACATGTCCCGCTTCTTTCATTAATCCGTTATCAACTGTTTTGCTATTTACATTTACCTTTTAAGAGGAGGAAT
Solution: 0.111
